- Measured Target: IRAK4 (Homo sapiens)
- Construct: endogenous in cells; host or cells: THP-1 cells
- Procedure Details: LVL THP1 HTRF (THP1 Homogeneous Time Resolved Fluorescence)
- Assay type: cell-based
- Condition Info: THP1 cells, 18 h incubation with compound
Value Kind: LVL THP1 HTRF YMIN (%)

P = COc1cnc2c(cnn2-c2cc(N[C@H](C)C#N)c(-n3cc([C@H]4CC[C@H](CCN5CCN(c6ccc(C7CCC(=O)NC7=O)cc6)CC5)CC4)nn3)cn2)c1 (stereo partly drawn)
Q = C[C@H](C#N)Nc1cc(-n2ncc3cc(C#N)c(N)nc32)ncc1-n1cc(C2CCC(CCN3CCN(c4ccc(C5CCC(=O)NC5=O)cc4)[C@@H](C)C3)CC2)nn1 (stereo partly drawn)
R = C[C@]1(c2ccc(N3CCN(CCC4CCC(c5cn(-c6cnc(-n7ncc8cc(C#N)cnc87)cc6NC6(C#N)CC6)nn5)CC4)CC3)cc2)CCC(=O)NC1=O (stereo partly drawn)
Kindly provide a descending ordering of the above compounds based on their LVL THP1 HTRF YMIN. // ordering of labels required in reply
P, R, Q
(P: 6.2%, R: 3.1%, Q: 1.8%)

* * *

- Measured Target: IRAK4 (Homo sapiens, UniProt Q9NWZ3)
- Construct: endogenous in cells; host or cells: THP-1 cells
- Sequence (Q9NWZ3 whole entry): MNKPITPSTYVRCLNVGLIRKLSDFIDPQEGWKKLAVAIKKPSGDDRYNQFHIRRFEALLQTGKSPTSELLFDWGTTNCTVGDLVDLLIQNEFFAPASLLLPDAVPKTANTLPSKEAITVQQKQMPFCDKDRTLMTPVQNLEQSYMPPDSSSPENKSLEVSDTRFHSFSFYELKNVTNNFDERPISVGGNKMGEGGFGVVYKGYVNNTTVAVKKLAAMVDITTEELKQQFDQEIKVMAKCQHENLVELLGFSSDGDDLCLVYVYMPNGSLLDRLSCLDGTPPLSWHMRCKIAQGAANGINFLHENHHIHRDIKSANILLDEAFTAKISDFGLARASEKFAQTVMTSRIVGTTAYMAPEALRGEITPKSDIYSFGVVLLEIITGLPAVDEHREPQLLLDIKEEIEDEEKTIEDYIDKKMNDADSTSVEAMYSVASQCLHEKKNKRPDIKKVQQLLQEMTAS
- Procedure Details: ALE THP1 HTRF (Advanced Lipoxidation End Product THP1 Homogeneous Time Resolved Fluorescence)
- Type: cell-based
- Condition Info: THP1 cells
Where a name gives a salt, the structure may show the parent alone.
Value Kind: ALE THP1 HTRF YMIN (%)

Study these solved cases before continuing.
- Compound: "C[C@H](C#N)Nc1cc(-n2ncc3cc(C#N)cnc32)ncc1-n1cc([C@H]2CC[C@H](CCN3CCN(c4ccc(C5CCC(=O)NC5=O)cc4)CC3)CC2)nn1 (stereo partly drawn) [P-139, formic acid salt]"
  Measured Target: "IRAK4 (Homo sapiens, UniProt Q9NWZ3)"
  Value Kind: "ALE THP1 HTRF YMIN"
  Value Measured: 5.6
- Compound: "C[C@H](C#N)Nc1cc(-n2ncc3cc(C#N)c(N)nc32)ncc1-n1cc([C@H]2CC[C@H](CCN3CCN(c4ccc(C5CCC(=O)NC5=O)cc4)CC3)CC2)nn1 (stereo partly drawn) [P-160, TFA]"
  Measured Target: "IRAK4 (Homo sapiens, UniProt Q9NWZ3)"
  Value Kind: "ALE THP1 HTRF YMIN"
  Value Measured: 5.8
- Compound: "N#Cc1cnc2c(cnn2-c2cc(NC3CCCC3)c(C(=O)N[C@H]3CC[C@H](CN4CCC(COc5ccc(C6CCC(=O)NC6=O)cc5)CC4)CC3)cn2)c1 (stereo partly drawn)"
  Measured Target: "IRAK4 (Homo sapiens, UniProt Q9NWZ3)"
  Value Kind: "ALE THP1 HTRF YMIN"
  Value Measured: 15.4

A = N#Cc1cnc2c(ccn2-c2cc(NC3CCCC3)c(C(=O)NC3CCC(CCN4CCN(c5ccc(C6CCC(=O)NC6=O)cc5)CC4)CC3)cn2)c1 (stereo not drawn)
B = C[C@H](C#N)Nc1cc(-n2ncc3cc(C#N)cnc32)ncc1C(=O)N[C@H]1CC[C@H](CCN2CCN(c3ccc(C4(C)CCC(=O)NC4=O)cc3)CC2)CC1 (stereo partly drawn)
C = N#Cc1cnc2c(cnn2-c2cc(NC[C@H]3CCCO3)c(C(=O)N[C@H]3CC[C@H](CCN4CCN(c5ccc(C6CCC(=O)NC6=O)cc5)CC4)CC3)cn2)c1 (stereo partly drawn)
Which order do these items take when sorted by rising ALE THP1 HTRF YMIN? List them. List the labels, following the order given in the request.
B, A, C
(B: 7.4%, A: 12.0%, C: 17.5%)

* * *

- Measured Target: IRAK4 (Homo sapiens)
- Construct: endogenous in cells; host or cells: THP-1 cells
- Procedure Details: LVL THP1 HTRF (THP1 Homogeneous Time Resolved Fluorescence)
- Assay type: cell-based
- Condition Info: THP1 cells, 18 h incubation with compound, read-out: LVL THP1 HTRF EC50
Value Kind: DC50 (nM)

Past entries and their recorded results:
- Compound: "C[C@H](C#N)Nc1cc(-n2ncc3cc(C#N)cnc32)ncc1-n1cc([C@H]2CC[C@H](CCN3CC4(CC(c5ccc(N6CCC(=O)NC6=O)cc5)C4)C3)CC2)nn1"
  Value Measured: 5.9
- Compound: "CC(F)(F)CNc1cc(-n2ncc3cc(C#N)cnc32)ncc1-n1cc([C@H]2CC[C@H](CCN3CCN(c4ccc(C5CCC(=O)NC5=O)cc4)CC3)CC2)nn1 (stereo partly drawn)"
  Value Measured: 26
- Compound: "C[C@H](C#N)Nc1cc(Nc2ncc(C#N)cn2)ncc1-n1cc([C@H]2CC[C@H](CCN3CCN(c4ccc(N5CCC(=O)NC5=O)cc4)[C@H](C)C3)CC2)nn1"
  Value Measured: 14.1
- Compound: "C[C@H](C#N)Nc1cc(Nc2ncc(C#N)cc2F)ncc1-n1cc([C@H]2CC[C@H](CCN3CCN(c4ccc(N5CCC(=O)NC5=O)cc4)CC3)CC2)nn1"
  Value Measured: 24.2
- Compound: "CC[C@@H]1CN(CC[C@H]2CC[C@H](c3cn(-c4cnc(-n5ncc6cc(C#N)cnc65)cc4N[C@H](C)C#N)nn3)CC2)CCN1c1ccc(N2CCC(=O)NC2=O)cn1"
  Value Measured: 6
- Compound: "C[C@H](C#N)Nc1cc(-n2ncc3cc(C#N)cnc32)ncc1-n1cc([C@H]2CC[C@H](CCN3CCC(c4ccc(N5CCC(=O)NC5=O)nc4)CC3)CC2)nn1"
  Value Measured: 2.4
- Compound: "Cc1cc(N2CC[C@H]3[C@@H]2CCN3CC[C@H]2CC[C@H](c3cn(-c4cnc(-n5ncc6cc(C#N)cnc65)cc4N[C@H](C)C#N)nn3)CC2)ccc1N1CCC(=O)NC1=O (single isomer, unassigned) [P-470]"
  Value Measured: 29.7
- Compound: "C[C@H](C#N)Nc1cc(-n2ncc3cc(C#N)cnc32)ncc1-n1cc([C@H]2CC[C@H](CCN3CCN(c4ccc(N5CCC(=O)NC5=O)cn4)[C@H](C)C3)CC2)nn1"
  Value Measured: 2.5

P = C[C@H](C#N)Nc1cc(-n2ncc3cc(C#N)c(N)nc32)ncc1-n1cc(C2CCC(CCN3[C@H](C)CN(c4ccc([C@@]5(C)CCC(=O)NC5=O)cc4)C[C@H]3C)CC2)nn1 (stereo partly drawn)
Q = C[C@H](C#N)Nc1cc(-n2ncc3cc(C#N)cnc32)ncc1-n1cc([C@H]2CC[C@H](CCN3CCN(c4ccc(N5CCC(=O)NC5=O)cc4)[C@H](C)C3)CC2)nn1
R = N#Cc1cnc2c(cnn2-c2cc(NC3CCOCC3)c(-n3cc([C@H]4CC[C@H](CCN5CCN(c6ccc(C7CCC(=O)NC7=O)cc6)CC5)CC4)nn3)cn2)c1 (stereo partly drawn)
Output the entries ranked by DC50 from maximum down to minimum. Please list each label once, in the requested order.
P, R, Q
(P: 23 nM, R: 7.6 nM, Q: 4.8 nM)

1 = C[C@H](C#N)Nc1cc(-n2ncc3cc(C#N)cnc32)ncc1-n1cc([C@H]2CC[C@](O)(CCN3CCN(c4ccc(C5CCC(=O)NC5=O)cc4)CC3)CC2)nn1 (stereo partly drawn)
2 = C[C@H](C#N)Nc1cc(-n2ncc3cc(C#N)cnc32)ncc1-n1cc([C@H]2CC[C@H](CCN3C[C@@H](C)N(c4ccc(N5CCC(=O)NC5=O)cc4)C[C@@H]3C)CC2)nn1
Input pair: 1 , 2 . Output: entry with lower DC50. When you have decided, please share the label of that item.
1

P = C[C@H](C#N)Nc1cc(-n2ncc3cc(C#N)c(N)nc32)ncc1-n1cc(C2CCC(CCN3[C@H](C)CN(c4ccc(C5CCC(=O)NC5=O)cc4)C[C@H]3C)CC2)nn1 (stereo partly drawn)
Q = C[C@H](C#N)Nc1cc(-n2ncc3cc(C#N)cnc32)ncc1-n1cc([C@H]2CC[C@H](CCN3CCC(c4ccc([C@@]5(C)CCC(=O)NC5=O)cc4)C(F)C3)CC2)nn1 (stereo in doubt) [P-310]
R = C[C@H](C#N)Nc1cc(-n2ccc3cc(C#N)c(N)nc32)ncc1C(=O)N[C@H]1CC[C@H](CCN2CCN(c3ccc(C4CCC(=O)NC4=O)cc3)CC2)CC1 (stereo partly drawn)
S = C[C@H](C#N)Nc1cc(-n2ncc3cc(C#N)cnc32)ncc1-n1cc([C@H]2CC[C@H](CCN3CCC(c4ccc(N5CCC(=O)NC5=O)cc4)C(F)C3)CC2)nn1 (single isomer, unassigned) [P-400]
T = N#Cc1cnc2c(cnn2-c2cc(N[C@H]3CCC[C@@H]3O)c(-n3cc([C@H]4CC[C@H](CCN5CCN(c6ccc(C7CCC(=O)NC7=O)cc6)CC5)CC4)nn3)cn2)c1 (stereo partly drawn)
Please rank these compounds by DC50 in descending order. List the labels in the requested order.
S, R, P, Q, T
